Source: ChEMBL document CHEMBL1136475

# experiment_description: Toxicity in rats was determined by sc administration at a dose of 10 mg/kg
# Type: organism-based
# Parameters: dose 10 mg/kg, route subcutaneous
# condition_set: rat, in vivo, read-out: Rate of death
measurement_name: mortality (%)
Enter your answer as a number in %; do not include the unit.

Please look at this compound and report its mortality: CCOC(=O)CCC(NC(=O)C1C(c2ccc(Cl)nc2)C2CCC1[N+]2(C)Cc1ccccc1)C(=O)OCC.[I-] (stereo unspecified)
80

* * *

# experiment_description: Toxicity in rats was determined by sc administration at a dose of 1 mg/kg
# Type: organism-based
# Set-up: dose 1 mg/kg, route subcutaneous
# condition_set: rat, in vivo, read-out: Rate of death
measurement_name: mortality (%)
Please reply with the bare figure in % and do not write the unit itself.

Give the measured mortality for CCOC(=O)C1CSCN1C(=O)C1C(c2ccc(Cl)nc2)C2CCC1[N+]2(C)Cc1ccccc1.[I-] (stereo unspecified)
0
